The following variants are shown together with reported protein stability index values.
B1: PLAGL1 (parent)
chain: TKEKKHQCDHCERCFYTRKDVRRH

Variants of: B1
Test name: protein stability index of a GFP-peptide fusion (GPS, HEK-293T) (PSI 1-6); higher = more stable;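 further: lentivirally expressed fusions sorted by FACS into six bins by GFP to DsRed ratio, PSI derived from sequencing read proportions per bin multiplied by bin number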
Recorded conditions: c terminus: a fixed tail appended

{"columns": ["Var", "protein stability index"],
 "data": [
  ["E12A", 3.05],
  ["K2I", 3.08],
  ["R13T", 3.06]
]}
